biological target: T1, Recombinant human EGFR-Fc (aa 1-645 of the extracellular domain of human EGFR fused to human Fc) (human, UniProt P00533 25-645)
T1 construct: range 1-645; bought from R&D Systems; also called EGFR645-Fc; EGFR-Fc (HER-1); not shown: human Fc
Answer each item with its documented Kd.
Just the number please, in nM, no unit attached.

In: Quick one: Kd for E96-GS10-I1 pegylated (designed binder, Cys of the C-terminal Cys tail conjugated to 40 kDa branched PEG) E/I tandem 10Fn3 chain: MGVSDVPRDLEVVAATPTSLLISWASNRGTYQYYRITYGETGGNSPVQEFTVPGGVSTATISGLKPGVDYTITVYAVTDAFNPTTHEYNYFTTPISINYRTEIDKGSGSGSGSGSGSGSGSGSGSVSDVPRDLEVVAATPTSLLISWSARLKVARYYRITYGETGGNSPVQEFTVPKNVYTATISGLKPGVDYTITVYAVTRFRDYQPISINYRTEIDKPCQHHHHHH ?
Out: 24.2

In: Quick one: Kd for E4-GS10-I1 pegylated, His-tagged (designed binder, 40 kDa branched PEG on the Cys of the C-terminal Cys tail, also called E4-GS10-I1 (with Peg)) MGVSDVPRDLEVVAATPTSLLISWHERDGSRQYYRITYGETGGNSPVQEFTVPGGVRTATISGLKPGVDYTITVYAVTDYFNPTTHEYIYQTTPISINYRTEIDKGSGSGSGSGSGSGSGSGSGSVSDVPRDLEVVAATPTSLLISWSARLKVARYYRITYGETGGNSPVQEFTVPKNVYTATISGLKPGVDYTITVYAVTRFRDYQPISINYRTEIDKPCQHHHHHH ?
Out: 4.77

In: Quick one: Kd for I1-GS10-E4 pegylated, His-tagged (designed binder, 40 kDa branched PEG on the Cys of the C-terminal Cys tail) MGVSDVPRDLEVVAATPTSLLISWSARLKVARYYRITYGETGGNSPVQEFTVPKNVYTATISGLKPGVDYTITVYAVTRFRDYQPISINYRTEIDKGSGSGSGSGSGSGSGSGSGSVSDVPRDLEVVAATPTSLLISWHERDGSRQYYRITYGETGGNSPVQEFTVPGGVRTATISGLKPGVDYTITVYAVTDYFNPTTHEYIYQTTPISINYRTEIDKPCQHHHHHH ?
Out: 3.63
